Exercise: state measured pIC50 for each of the molecules provided.
system name: mushroom tyrosinase
protocol description: Tyrosinase enzymatic assay (diphenolase activity, dose-response IC50)
run parameters: L-DOPA 1 mM as substrate; pH 6.8, 25 °C; n = 3
Procedure: In order to determine the IC50, dose–response analysis for all investigated compounds was performed. […] The enzyme was isolated from Agaricus bisporus, purchased from a local supplier in Wroclaw, and prepared as described in our previous papers, according to known procedures reported in the literature. The full description of enzyme preparation is included in the Supplementary Materials (Section 2). […] L-DOPA was dissolved in a 0.15 mM phosphoric (V) acid solution to a concentration of 5 mM. […]
Give bare numbers, as −log10 of the molar value.

Before answering, review these 3 worked examples.
{"columns": ["molecule", "quantity kind", "recorded result"],
 "data": [
  ["CC(=NNC(N)=S)c1ccccc1O [TSC 7, 2’-hydroxyacetophenone thiosemicarbazone]", "pIC50", 5.92],
  ["C/C(=N/NC(N)=S)c1ccccc1 [Acetophenone TSC, acetophenone thiosemicarbazones]", "pIC50", 5.82],
  ["C/C(=N\\NC(N)=S)c1ccc(O)cc1 [TSC 9]", "pIC50", 6.10]
]}

input: Report pIC50 for C/C(=N\NC(N)=S)c1cccc([N+](=O)[O-])c1 [TSC 11]
output: 4.85
